What growth was measured for each of the following?
Tested on: SNB-19 CNS
assay.method.text: NCI-60 one-dose screen, 48 h (100 = growth as untreated, 0 = no growth, -100 = all killed)
measurement.context: 10 µM unless noted
This is part of a sample that, as a whole, favours compounds with a hit. Of some 83,000 tested, about 20% had one in any assay.
Give the value in % but do not write % after it.

Can you share its growth? I mean this molecule: N#Cc1nc(-c2ccccc2)oc1S(=O)(=O)N1CCN(c2ccc(F)cc2)CC1
87.6

One more molecule: COc1cc2c(c(OC)c1OC)C(=O)CC(c1cccc(NC(=O)c3ccc(C#N)cc3)c1)O2 (stereo unspecified)
92

Then what about the molecule CC1=C2[C@@H](CC1)[C@]1(C)O[C@@](C3CCCCC3)(C[C@H]1OC(=O)CO)[C@H]2OC(=O)/C=C/c1ccccc1 ?
91.4

COc1cnc2c(c1)C(=O)c1c-2n(CCCCl)c(=O)c2ccncc12 , same question.
55.4

Lookup C=CCOC(=O)C1=C(C)N(CC)C(=O)NC1c1c(Cl)n(C)c2ccccc12 (stereo unspecified)
99.9

Can you handle Nc1[nH]c(=S)nc2oc(-c3ccccc3)c(-c3ccccc3)c12 next?
98

###

System: 786-0 renal
assay.method.text: NCI-60 one-dose screen, 48 h
measurement.context: 10 µM unless noted
About 83,000 compounds went through this panel and 20% of them were active in at least one assay; those are over-represented in the sample as a whole. Active and inactive are the calls of the source. How the source made its calls: active means growth percent below 10; inactive means the rest.
Just give me one of these, please: TRUE (active), FALSE (inactive)

Tell me the recorded outcome of this test for CC(C)=CCNc1ncnc2c1ncn2C1OC(CO)C(O)C1O (stereo not given) .
TRUE

What would you report for CCN1C(=O)N(CC)C2C1NC(=S)N2/N=C/c1ccc(OC)cc1 (stereo not given) ?
FALSE

Now the molecule CCNc1ccc(-c2nc3ccccc3n3cccc23)cc1
FALSE

Also need CCN1C2CCC1/C(=C\c1ccc(F)cc1)C(=O)/C2=C/c1ccc(F)cc1 , thanks.
FALSE

Entry to check: CC1=C2[C@@H](CC1)[C@]1(C)O[C@@](C3CCCCC3)(C[C@H]1OC(=O)CO)[C@H]2OC(=O)/C=C/c1ccccc1
FALSE

###

Test system: HCC-2998 colon
assay.method.text: NCI-60 one-dose screen, 48 h
measurement.context: 10 µM unless noted
Protocol: Growth inhibition of the HCC-2998 human tumor cell line is measured as a screen for anti-cancer activity. Cells are grown in 96 well plates and exposed to the test compound for 48 hours. Compounds are tested at a single concentration, which is 10^-5 M for most compounds. The reported endpoint is percent growth (GI% or GIPRCNT), where numbers from 0 - 100% represent growth inhibition, and numbers from -100% - 0 represent cell death. For example, a value of 40 represents 60% growth inhibition. […]
Compounds without any hit were thinned out: in the full panel of roughly 83,000, 20% have a hit. Active and inactive are the calls of the source. Rule for the calls: active = growth percent below 10; inactive = the rest.
The reply should be one of these categories: t (active), f (inactive)

Per the records of this test, what outcome belongs to S=c1nc2oc(-c3ccccc3)c(-c3ccccc3)c2c(/N=C\c2ccco2)[nH]1 ?
f

Param item: Cc1ccc(-c2nc3nc(-c4ccccc4)nc(N4CCCN(S(C)(=O)=O)CC4)c3o2)cc1
f

// repeat for C=C1C(=O)O[C@H]2[C@H]1CC/C(COC(=O)/C=C\C(=O)NCc1ccc(Cn3c(=O)sn(CCCl)c3=O)cc1)=C\CC[C@@]1(C)O[C@@H]21 and report
f

Follow-up entry: Cc1nc2ccccc2c(/C=C/c2ccccc2)c1C(=O)/C=C/c1ccccc1
f

Also need CCN1C(=O)N(CC)C2C1NN=c1s/c(=C\c3ccc(C(F)(F)F)cc3)c(=O)n12 (stereo not drawn) , thanks.
t

Can you check COc1ccc2c(c1)c(-c1nc(-c3c[nH]c4ncccc34)cs1)cn2CCO next?
f

// next record COc1ccc(/C=C/c2c(C(=O)/C=C/c3ccccc3)c(C)nc3ccccc23)cc1
f

Now the molecule COc1cc(C(=O)n2nc(N3CCOCC3)c3cc(-n4cccc4)ccc32)cc(OC)c1OC
f

Same thing, different molecule: CCOC(=O)c1[nH]c2c(c1C)-c1[nH]c(=O)c(S(=O)(=O)c3ccccc3)cc1SC2
f

Continue with C=C1C(=O)O[C@H]2[C@H]1CC/C(COC(=O)NCc1ccc(Cn3c(=O)sn(-c4ccc(C#N)cc4)c3=O)cc1)=C\CC[C@@]1(C)O[C@@H]21
f

Entry Cc1ccc(C(=O)Nc2cccc(C#Cc3cccc4[nH]nc(N)c34)c2)cc1C(F)(F)F please
f

Further, for O=C1c2cccc3cccc(c23)C(=O)N1C/C=C/c1ccc2c3c(cccc13)C(=O)N(CCO)C2=O ?
f

Cool, now C=C1C(=O)O[C@H]2[C@H]1CC/C(COC(=O)c1ccc(C(=O)O)s1)=C\CC[C@@]1(C)O[C@@H]21
f
